Assignment: determine reported inhibition for the given compounds.
target: Neuronal acetylcholine receptor; alpha3/beta4 (Rattus norvegicus) (UniProt P04757+P12392); assay: Antagonist activity at rat alpha3beta4 nAChR expressed in HEK293 cells assessed as inhibition of epibatadine-induced effect at 10 uM after 30 mins by fluorescent membrane potential assay relative to mecamylamine; format: cell-based
Bridge positions count the residues as written; N and C are the ends. Square brackets hold non-standard residues; d marks the D form. Peptide text beside a SMILES is read from it. Nva = CCC[C@H](N)C(=O)O; Abu = CC[C@H](N)C(=O)O
Reply with just the number (in %).

Input line: Fill in the blank: the reported inhibition of CCC[C@@H]1NC(=O)[C@H](CC)NC(=O)[C@H](Cc2ccccc2)NC(=O)[C@@H]2CSSC[C@H](NC(=O)CN)C(=O)N[C@@H](CSSC[C@@H](C(=O)O)NC(=O)[C@@H]3CCCN3C1=O)C(=O)N[C@@H](CO)C(=O)N[C@@H](Cc1cnc[nH]1)C(=O)N1CCC[C@H]1C(=O)N1CCC[C@H]1C(=O)N2 (H-GCCSHPPCF[Abu][Nva]PC-OH; disulfide 2-8, 3-13) is ____.
Output line: 36

Input line: Need inhibition, item CCC[C@@H]1NC(=O)[C@H](CC)NC(=O)[C@H]([C@H](C)CC)NC(=O)[C@@H]2CSSC[C@H](NC(=O)CN)C(=O)N[C@@H](CSSC[C@@H](C(=O)O)NC(=O)[C@H](Cc3ccc(O)cc3)NC1=O)C(=O)N[C@@H](CO)C(=O)N[C@@H](Cc1cnc[nH]1)C(=O)N1CCC[C@H]1C(=O)N[C@@H](CC)C(=O)N2
Output line: 84.5

Input line: // query inhibition value for entry CCCC[C@@H]1NC(=O)[C@H](CC)NC(=O)[C@H]([C@H](C)CC)NC(=O)[C@@H]2CSSC[C@H](NC(=O)CN)C(=O)N[C@@H](CSSC[C@@H](C(=O)O)NC(=O)[C@@H]3CCCN3C1=O)C(=O)N[C@@H](CO)C(=O)N[C@@H](Cc1cnc[nH]1)C(=O)N1CCC[C@H]1C(=O)N[C@@H](CC)C(=O)N2
Output line: 36.2

Input line: Recorded inhibition for CCCC[C@@H]1NC(=O)[C@H](Cc2c[nH]c3ccccc23)NC(=O)[C@H]([C@H](C)CC)NC(=O)[C@@H]2CSSC[C@H](NC(=O)CN)C(=O)N[C@@H](CSSC[C@@H](C(=O)O)NC(=O)[C@H](Cc3ccc(O)cc3)NC1=O)C(=O)N[C@@H](CO)C(=O)N[C@@H](Cc1cnc[nH]1)C(=O)N1CCC[C@H]1C(=O)N[C@@H](CC)C(=O)N2 , please?
Output line: 55.7

Input line: Given CCCC[C@@H]1NC(=O)[C@H](CC)NC(=O)[C@H]([C@H](C)CC)NC(=O)[C@@H]2CSSC[C@H](NC(=O)CN)C(=O)N[C@@H](CSSC[C@@H](C(=O)O)NC(=O)[C@H](Cc3ccc(O)cc3)NC1=O)C(=O)N[C@@H](CO)C(=O)N[C@@H](CCCC)C(=O)N1CCC[C@H]1C(=O)N1CCC[C@H]1C(=O)N2 , state its recorded inhibition.
Output line: 63.8

Input line: Fill blank: measured inhibition of the compound CCC[C@@H]1NC(=O)[C@H](Cc2c[nH]c3ccccc23)NC(=O)[C@H](Cc2ccccc2)NC(=O)[C@@H]2CSSC[C@H](NC(=O)CN)C(=O)N[C@@H](CSSC[C@@H](C(=O)O)NC(=O)[C@H](Cc3ccc(O)cc3)NC1=O)C(=O)N[C@@H](CO)C(=O)N[C@@H](Cc1cnc[nH]1)C(=O)N1CCC[C@H]1C(=O)N1CCC[C@H]1C(=O)N2 (H-GCCSHPPCFW[Nva]YC-OH; disulfide 2-8, 3-13) is ____.
Output line: 47.8
